Assay: ATG_ISRE_CIS: Attagene CIS-FACTORIAL HepG2 Assay for human Interferon Regulatory Factor 1 (IRF1) binding to an Interferon-Stimulated Response Element (ISRE) (AID 2282948)
Conditions: HepG2 ISRE cis-reporter (Attagene), mRNA transcription readout; actives raise or lower the signal
Calls of active or inactive are those of the source. How the source made its calls: active means hit-call score of the fitted dose curve at least 0.9, where 1 is the maximum; inactive means score below 0.9.
Result category, one only: active, inactive

Example results:
CCC(C)c1ccccc1O (stereo not given) | inactive
FC(F)(F)C(F)(F)C(F)(F)Br | inactive
Clc1ccc(Nc2nnc(Cc3ccncc3)c3ccccc23)cc1 | inactive

Recorded test outcome, item Brc1cc(Br)c(Oc2c(Br)cc(Br)c(Br)c2Br)cc1Br
inactive

Test call, this compound: NNC(=O)CCCCC(=O)NN
inactive

Given Cn1sccc1=O , state the outcome it received in this test.
active

Name the outcome recorded for O=C1c2ccc(O)c(O)c2C(=O)c2c(O)ccc(O)c21 in the assay.
inactive

Tell me the recorded outcome of this test for O=C(O)CN(CCCN(CC(=O)O)CC(=O)O)CC(=O)O .
inactive

Which outcome did this test record for the compound CCc1cccc(CC)c1NC(=O)C(=O)O ?
inactive

Record request — test call for O=CC(F)(F)C(F)(F)C(F)(F)F
inactive

Status in this test for O=S(=O)(O)c1ccc2cc(O)ccc2c1 ?
inactive

Hi, sorry to bother you, what did the test record for O=C(c1ccccc1)c1ccccc1 ?
inactive

Check the results log: what was the call for Cc1ccccc1OCC(=O)O ?
inactive

Field: outcome | Entry: CC1CCC(CO)CC1 (stereo not given)
inactive

Per the assay record, what outcome was assigned to CC1=NN(c2ccccc2)C(=O)C1 ?
inactive

src = PubChem BioAssay (EPA / NIEHS)
